target or test system: Mag-lipase (Rattus norvegicus, UniProt Q8R431)
Construct: supernatant from final spin in the anandamide amidase preparation; from tissue; host or cells: supernatant (soluble fraction) of the anandamide amidase preparation, rat brain by the cited procedure
Sequence (Q8R431 1-303): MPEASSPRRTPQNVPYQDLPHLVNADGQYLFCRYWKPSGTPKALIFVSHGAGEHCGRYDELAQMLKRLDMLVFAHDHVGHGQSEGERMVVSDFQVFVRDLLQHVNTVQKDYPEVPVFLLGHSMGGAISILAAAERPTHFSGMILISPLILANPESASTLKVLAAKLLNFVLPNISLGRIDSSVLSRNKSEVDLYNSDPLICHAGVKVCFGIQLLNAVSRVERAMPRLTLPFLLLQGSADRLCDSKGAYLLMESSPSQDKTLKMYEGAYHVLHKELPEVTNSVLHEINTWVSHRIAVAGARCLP
measurement notes: Inhibition of MAG-lipase: 2-AG metabolism to arachidonic acid
Assay type: biochemical
measurement parameters: 30 nmoles compound with 30 nmoles 2-AG, 30 μg enzyme, 300 μL, 20 min

compound	result unit	Mag-Lipase % Inhibition
CC/C=C\C/C=C\C/C=C\CCCCCCCCOC(=O)NC[C@H](C)O	%	24.6
CCCCC/C=C\C/C=C\C/C=C\C/C=C\CCCCOC(=O)NC1=NCCS1	%	34.0
CCCCCN(C)C/C=C\C/C=C\C/C=C\C/C=C\CCCCNC(=O)c1ccc(O)cc1 [Compound A26]	%	9.8
CCCCCN(C)C/C=C\C/C=C\C/C=C\C/C=C\CCCCNC(=O)c1ccc(O)cc1 [Compound A27]	%	4.2
CCCCCCCCC=CCCCCCCCCOC(=O)NCC(C)O (stereo not shown)	%	13.1
CCCCCC=CCC=CCC=CCC=CCCCCOC(=O)NCC(C)O (stereo not shown)	%	14.3
CCCCC/C=C\C/C=C\CCCCCCCCOC(=O)NC[C@H](C)O	%	25.8

----------
target or test system: FAAH (fatty acid amide hydrolase) (Rattus norvegicus)
Construct: Anandamide Amidase Activity in Rat Brain Microsomes; from tissue; host or cells: rat brain microsomes (by the cited procedure)
Sequence (P97612 whole entry): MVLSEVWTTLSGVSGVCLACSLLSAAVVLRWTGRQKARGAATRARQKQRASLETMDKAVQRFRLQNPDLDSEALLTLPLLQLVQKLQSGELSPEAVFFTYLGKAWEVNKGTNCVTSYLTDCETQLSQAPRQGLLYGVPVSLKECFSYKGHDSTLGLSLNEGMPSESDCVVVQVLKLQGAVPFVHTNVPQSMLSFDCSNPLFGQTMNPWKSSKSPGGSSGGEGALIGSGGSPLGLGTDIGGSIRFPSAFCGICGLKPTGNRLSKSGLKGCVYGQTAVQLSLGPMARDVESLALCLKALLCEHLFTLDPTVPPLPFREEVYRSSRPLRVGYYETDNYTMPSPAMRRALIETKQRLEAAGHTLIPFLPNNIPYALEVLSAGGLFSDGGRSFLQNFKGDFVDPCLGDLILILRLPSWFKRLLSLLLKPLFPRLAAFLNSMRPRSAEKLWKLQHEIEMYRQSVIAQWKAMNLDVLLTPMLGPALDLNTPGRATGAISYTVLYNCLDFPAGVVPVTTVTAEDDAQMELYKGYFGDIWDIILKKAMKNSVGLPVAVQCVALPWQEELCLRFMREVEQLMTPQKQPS
measurement notes: FAAH screening: inhibition of anandamide metabolism to arachidonic acid
Format: biochemical
measurement parameters: 25 nmoles compound with 25 nmoles AEA, 75 μg enzyme, 250 μL, 15 min
Documented FAAH % Inhibition across a set of compounds
measured property: FAAH % Inhibition

compound	val
O=C(CCC/C=C\C/C=C\C/C=C\C/C=C\CCCCc1ccccc1)NCC1CC1 [Compound A1]	23%
O=C(CCC/C=C\C/C=C\C/C=C\C/C=C\CCCCN=C=S)NCC1CC1 [Compound A11]	90%
COc1cc(CNC(=O)CCC/C=C\C/C=C\C/C=C\C/C=C\CCCCN=[N+]=[N-])ccc1O [Compound A7]	46%
CC/C=C\C/C=C\C/C=C\CCCCCCCCOC(=O)NC[C@H](C)O [Compound B15]	6.96%
COc1cc(CNC(=O)CCC/C=C\C/C=C\C/C=C\C/C=C\CCCCN=C=S)ccc1O [Compound A12]	39%
O=C(CCC/C=C\C/C=C\C/C=C\C/C=C\CCc1ccccc1)Nc1ccc(O)cc1 [Compound A3]	34%
CCCCC/C=C\C/C=C\C/C=C\C/C=C\CCCCOC(=O)N[C@H](C)CO [Compound B1]	14.7%
O=C(CCC/C=C\C/C=C\C/C=C\C/C=C\CCCCCCl)NC1CC1 [Compound A20]	67%
CCCCC/C=C\C/C=C\C/C=C\C/C=C\CCCCOC(=O)N[C@@H](C)CO [Compound B2]	14.3%
COc1cc(CNC(=O)CCC/C=C\C/C=C\C/C=C\C/C=C\CCCCCN=[N+]=[N-])ccc1O [Compound A15]	38%
N#CCCCCC/C=C\C/C=C\C/C=C\C/C=C\CCCC(=O)NC1CC1 [Compound A19]	57%
CCCCC/C=C\C/C=C\CCCCCCCCOC(=O)NC[C@H](C)O [Compound B14]	1.20%
CCCCCC=CCC=CCC=CCC=CCCCCOC(=O)NCC(C)O (stereo not shown) [Compound B4]	7%
[N-]=[N+]=NCCCCC/C=C\C/C=C\C/C=C\C/C=C\CCCC(=O)NC1CC1 [Compound A5]	7%
[N-]=[N+]=NCCCCC/C=C\C/C=C\C/C=C\C/C=C\CCCC(=O)Nc1ccc(O)cc1 [Compound A13]	33%
[N-]=[N+]=NCCCC/C=C\C/C=C\C/C=C\C/C=C\CCCC(=O)NCC1CC1 [Compound A6]	11%
O=C(CCC/C=C\C/C=C\C/C=C\C/C=C\CCc1ccccc1)NCC1CC1 [Compound A2]	32%
[N-]=[N+]=NCCCC/C=C\C/C=C\C/C=C\C/C=C\CCCC(=O)NC1CCC1 [Compound A9]	58%
[N-]=[N+]=NCCCCC/C=C\C/C=C\C/C=C\C/C=C\CCCC(=O)NC1=NCCS1 [Compound A14]	48%
O=C(CCC/C=C\C/C=C\C/C=C\C/C=C\CCCCCBr)NC1CC1 [Compound A18]	72%
CCCCCC=CCC=CCC=CCC=CCCCCOC(=O)NCC(C)O (stereo not shown) [Compound B3]	10%
CCCCC/C=C\C/C=C\C/C=C\C/C=C\CCCCOC(=O)Nc1ccc(O)cc1 [Compound B9]	27.3%
[N-]=[N+]=NCCCC/C=C\C/C=C\C/C=C\C/C=C\CCCC(=O)NC1=NCCS1 [Compound A8]	49%
CC(C)NC(=O)CCC/C=C\C/C=C\C/C=C\C/C=C\CCCCN=C=S [Compound A10]	84%
CCCCC/C=C\C/C=C\C/C=C\C/C=C\CCCCOC(=O)NC(C)C [Compound B5]	4.5%
O=C(CCC/C=C\C/C=C\C/C=C\C/C=C\CCc1ccccc1)Nc1nccs1 [Compound A4]	58%
O=C(CCC/C=C\C/C=C\C/C=C\C/C=C\CCCCCO)NC1CC1 [Compound A17]	61%
CCCCC/C=C\C/C=C\C/C=C\C/C=C\CCCCNC(=O)NC[C@H](C)O [Compound B12]	17.2%

----------
target or test system: CB1 cannabinoid receptor (Rattus norvegicus)
Construct: membranes were prepared from rat forebrain membranes; from tissue; host or cells: rat forebrain
Sequence (P20272 whole entry): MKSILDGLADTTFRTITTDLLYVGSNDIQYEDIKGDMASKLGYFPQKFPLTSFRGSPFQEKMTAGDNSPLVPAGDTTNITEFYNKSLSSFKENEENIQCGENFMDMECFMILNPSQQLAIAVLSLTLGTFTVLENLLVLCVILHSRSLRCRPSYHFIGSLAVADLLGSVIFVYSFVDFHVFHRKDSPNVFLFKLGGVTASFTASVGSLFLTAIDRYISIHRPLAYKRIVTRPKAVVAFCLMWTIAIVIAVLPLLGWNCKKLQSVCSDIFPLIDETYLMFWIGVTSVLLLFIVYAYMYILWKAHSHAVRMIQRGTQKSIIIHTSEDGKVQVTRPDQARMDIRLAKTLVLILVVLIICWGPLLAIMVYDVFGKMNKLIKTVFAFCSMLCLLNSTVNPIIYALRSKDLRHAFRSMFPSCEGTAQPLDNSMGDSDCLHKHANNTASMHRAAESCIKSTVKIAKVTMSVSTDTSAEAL
measurement notes: CB1 receptor binding, [3H]CP-55,940 displacement
measurement parameters: with PMSF (second value of cell); rat forebrain membranes; read-out: Ki CB1 (nM) (o/w PMSFQ)

compound string	target or test system	Ki, nM
O=C(CCC/C=C\C/C=C\C/C=C\C/C=C\CCCCc1ccccc1)NCC1CC1	CB1 cannabinoid receptor (Rattus norvegicus)	153
[N-]=[N+]=NCCCC/C=C\C/C=C\C/C=C\C/C=C\CCCC(=O)NC1CCC1	CB1 cannabinoid receptor (Rattus norvegicus)	31.9
[N-]=[N+]=NCCCC/C=C\C/C=C\C/C=C\C/C=C\CCCC(=O)NCC1CC1	CB1 cannabinoid receptor (Rattus norvegicus)	114

----------
target or test system: CB1 cannabinoid receptor (Rattus norvegicus)
Construct: membranes were prepared from rat forebrain membranes; from tissue; host or cells: rat forebrain
measurement notes: CB1 receptor binding, [3H]CP-55,940 displacement
measurement parameters: with PMSF (second value of cell); rat forebrain membranes; read-out: Ki CB1 (nM) (o/w PMSFQ)
Assign labels as follows, please: 1 (yes) for Ki below 100 nM; 0 (no) for Ki equal to or exceeding 100 nM.

compound	label class
[N-]=[N+]=NCCCC/C=C\C/C=C\C/C=C\C/C=C\CCCC(=O)NC1=NCCS1	0 (no)
CCCCCN(C)C/C=C\C/C=C\C/C=C\C/C=C\CCCCNC(C)=O [Compound A25]	0 (no)
O=C(CCC/C=C\C/C=C\C/C=C\C/C=C\CCc1ccccc1)Nc1nccs1	1 (yes)
CCCCCN(C)C/C=C\C/C=C\C/C=C\C/C=C\CCCC(=O)NC1CC1	1 (yes)
CCCCCN(C)C/C=C\C/C=C\C/C=C\C/C=C\CCCCNC(C)=O [Compound A23]	0 (no)

----------
target or test system: Mag-lipase (Rattus norvegicus)
Construct: supernatant from final spin in the anandamide amidase preparation; from tissue; host or cells: supernatant (soluble fraction) of the anandamide amidase preparation, rat brain by the cited procedure
Sequence (Q8R431 1-303): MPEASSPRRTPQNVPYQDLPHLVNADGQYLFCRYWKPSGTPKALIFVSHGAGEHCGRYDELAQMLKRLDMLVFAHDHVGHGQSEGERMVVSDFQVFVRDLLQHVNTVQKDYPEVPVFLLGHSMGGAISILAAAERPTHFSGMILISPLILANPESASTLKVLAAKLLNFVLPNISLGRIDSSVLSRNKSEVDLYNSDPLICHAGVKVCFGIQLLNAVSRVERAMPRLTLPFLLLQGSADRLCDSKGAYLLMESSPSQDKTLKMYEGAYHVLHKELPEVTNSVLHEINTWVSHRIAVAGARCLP
measurement notes: Inhibition of MAG-lipase: 2-AG metabolism to arachidonic acid
Format: biochemical
measurement parameters: 20 min, 30 nmoles compound with 30 nmoles 2-AG, 30 μg enzyme, 300 μL
inhibition at 100 µM for assorted compounds

compound string	inhibition at 100 µM
O=C(CCC/C=C\C/C=C\C/C=C\C/C=C\CCc1ccccc1)NCC1CC1	37.5%
COc1cc(CNC(=O)CCC/C=C\C/C=C\C/C=C\C/C=C\CCCCN=[N+]=[N-])ccc1O	13.7%
O=C(CCC/C=C\C/C=C\C/C=C\C/C=C\CCc1ccccc1)Nc1nccs1	9.2%
CCCCC/C=C\C/C=C\C/C=C\C/C=C\CCCCNC(=O)NC[C@H](C)O	11.1%
O=C(CCC/C=C\C/C=C\C/C=C\C/C=C\CCCCc1ccccc1)NCC1CC1	20.5%
CCCCC/C=C\C/C=C\C/C=C\C/C=C\CCCCOC(=O)Nc1cccnc1	16.8%
O=C(CCC/C=C\C/C=C\C/C=C\C/C=C\CCc1ccccc1)Nc1ccc(O)cc1	16.7%
O=C(CCC/C=C\C/C=C\C/C=C\C/C=C\CCCCCBr)NC1CC1	22.5%
[N-]=[N+]=NCCCC/C=C\C/C=C\C/C=C\C/C=C\CCCC(=O)NCC1CC1	20.7%
